fold change values for the compounds below.
- experimental protocol: sensitizers of A549 cells to miR-34 induction, primary screen, imaging, A549 dox-inducible miR-34, nuclei and caspase counts (AID 1347080)
- applied conditions: A549 miR-34 inducible, Hoechst nuclei count, 48 h; stronger effect = lower value; cell number ratio, induced over uninduced
Keep it simple and answer with nothing but the number.

compound	measure name	number
CN1CCN(c2nc3ccccc3nc2Cl)CC1	fold change	0.946

Ask | Item `Cc1ccccc1-n1c(Cn2ncc3c(N)ncnc32)nc2cccc(C)c2c1=O` has what recorded fold change?
Reply | 0.903

Ask | Item `Cc1ccc2c(c1)Cc1c(C(=O)NC3CCCCC3)nn(-c3ccc(Cl)cc3Cl)c1-2` has what recorded fold change?
Reply | 0.986

Ask | Item `CCN1C[C@]2(C)CC[C@H](OC)[C@@]34C1[C@]1(OCO[C@@]15C[C@H](OC)[C@H]1C[C@]3(O)[C@@H]5[C@H]1OC)[C@@H](OC(C)=O)[C@H]24` has what recorded fold change?
Reply | 0.951

Ask | Item COc1cc2c(cc1OC)[C@@]13CCN4CC5=CCOC6CC(=O)N2C1C6C5CC43 (some centres undefined) has what recorded fold change?
Reply | 0.989

Ask | Item `C=C(C)[C@@H]1CCC(C)=C[C@H]1c1c(OC)cc(CCCCC)cc1OC` has what recorded fold change?
Reply | 0.935

Ask | Item COc1ccc(C(=O)OC2C[C@H]3CC[C@H](C2)N3C)cc1OC (some centres undefined) has what recorded fold change?
Reply | 0.888

Ask | Item CC(C)[C@]12OC1C1O[C@]13[C@]1(OC1CC1C4=C(CC[C@@]13C)C(=O)OC4)C2O (some centres undefined) has what recorded fold change?
Reply | 0.971

Ask | Item C[C@H]1O[C@@H](OC2CC[C@]3(C=O)[C@H]4CC[C@]5(C)[C@@H](C6=CC(=O)OC6)CC[C@]5(O)[C@@H]4CC[C@]3(O)C2)C[C@H](O)[C@@H]1O (some centres undefined) has what recorded fold change?
Reply | 0.718

====

growth inhibition values for the compounds below.
- experimental protocol: inhibition of 3D7 malaria parasite growth – strain 3D7 (AID 2306);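 note: 0% = DMSO wells and 100% = chloroquine plus artemisinin control wells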
- applied conditions: P. falciparum 3D7 erythrocytic growth, LDH absorbance, 72 h; at 2 µM; stronger effect = higher value
Answer format: numeric, % implied, no suffix.

Example compounds with recorded growth inhibition:
compound	measure name	number
CO[C@@H]1C[C@@H](C(=O)Nc2ccccc2)N(c2ccc(C#N)c3ccccc23)C1	growth inhibition	98
Cc1cccc2c(C3CCN(CC4CCC(NC(=O)/C=C/c5ccc(Cl)c(Cl)c5)CC4)CC3)c[nH]c12 (centres undefined)	growth inhibition	92
CC1(C)CCCN(C(=O)Cc2ccc3c(c2)CCCC3)C1CN1CC=CC1 (centres undefined)	growth inhibition	98
O=C(CSc1ccc(Cl)cc1)NC1CCC(CN2CCC(c3c[nH]c4ccccc34)CC2)CC1 (centres undefined)	growth inhibition	95
CC[C@H]1CN2CC[C@H]1C[C@H]2[C@H](O)c1cc(N2CCCC(C(=O)N(CC)CC)C2)nc2ccc(OC)cc12 (some centres undefined)	growth inhibition	101

Ask | Item CCCCCOc1ccc(CC(C)NCC(O)c2cccc(Cl)c2)cc1 (centres undefined) has what recorded growth inhibition?
Reply | 101

Ask | Item COc1ccc(CC(C)NCC(O)c2cccc(Cl)c2F)cc1 (centres undefined) has what recorded growth inhibition?
Reply | 88

Ask | Item O=C(NC1CCC(CN2CCC(c3c[nH]c4ccccc34)CC2)CC1)c1cc(-c2ccccc2Cl)oc1C(F)(F)F (centres undefined) has what recorded growth inhibition?
Reply | 99

Ask | Item `C[C@@H](CC1CCCCC1)NCc1ccccc1O` has what recorded growth inhibition?
Reply | 98

====

- experimental protocol: HepG2 cytotoxicity, primary screen, cytotoxicity control for P. falciparum antimalarial project, cell-based, ATP luminescence (AID 2303);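 note: 0% = DMSO wells and 100% = digitonin-killed cells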
- applied conditions: HepG2 viability, 24-48 h, at 10 µM, stronger effect = higher value
inhibition values for the compounds below.
Answer format: numeric, % implied, no suffix.

Example compounds with recorded inhibition:
compound	inhibition (%)
COc1ccc(OC)c(CNCC(O)c2cc(C(F)(F)F)cc(C(F)(F)F)c2)c1 (stereo not drawn)	7
COc1ccc(N(c2nc(-c3cc(Cl)ccc3Cl)cs2)C2CCNCC2)cc1	17
Clc1ccc2nccc(N3CCC(CN4CCC(c5c[nH]c6ccccc56)CC4)CC3)c2c1	46
CCCc1c(C(=O)NC2CCC(CN3CCC(c4c[nH]c5ccccc45)CC3)CC2)cnn1-c1ccc(Cl)cc1 (stereo not drawn)	53
N#Cc1ccc(N(CC(=O)NCCc2ccc(F)cc2)CC2CC2)c2ccccc12	28
O=C(Cc1cc(=O)oc2cc(O)ccc12)N1CCC(CN2CCC(c3c[nH]c4ccccc34)CC2)CC1	1

Ask | Item COC(=O)/C=C/c1ccc(CC(C)NCC(O)c2cccc(Br)c2)cc1 (stereo not drawn) has what recorded inhibition?
Reply | 2

Ask | Item `O=C1NCN(c2ccc(O)cc2)C12CCN(CCCC(c1ccc(F)cc1)c1ccc(F)cc1)CC2` has what recorded inhibition?
Reply | 20

Ask | Item `Cc1cc(-c2ncc[nH]2)ccc1-c1ccc(C(=O)N2CCc3cc4c(cc32)C2(CCN(C)CC2)CO4)cc1` has what recorded inhibition?
Reply | 32

Ask | Item `O=C(/C=C/c1ccc(Cl)c(Cl)c1)Nc1cccc(CN2CCC(c3c[nH]c4ccccc34)CC2)c1` has what recorded inhibition?
Reply | 15

Ask | Item `O=C(NCc1ccccc1)c1nn(CCCN2CCC3(CC2)C(=O)NCN3c2ccccc2)cc1-c1ccc(Cl)c(Cl)c1` has what recorded inhibition?
Reply | 6

Ask | Item CC(Cc1ccc(NC(=O)[C@H](C)NCCc2cccc(Cl)c2)cc1)NCCc1cccc(Cl)c1 (stereo partly drawn) has what recorded inhibition?
Reply | 99

Ask | Item CS(=O)(=O)Nc1ccc2[nH]cc(C3C[C@H]4CC[C@@H](C3)N4CC3CCC(NC(=O)/C=C/c4ccc(Cl)c(Cl)c4)CC3)c2c1 (stereo partly drawn) has what recorded inhibition?
Reply | 3

Ask | Item `O=C(/C=C/c1ccc(Cl)c(Cl)c1)N1CC[C@H]2C[C@H](N3CCC(c4c[nH]c5ccccc45)CC3)CC[C@@H]2C1` has what recorded inhibition?
Reply | 31

Ask | Item O=C(/C=C/c1c(Cl)cccc1Cl)NC1CCC(CN2[C@@H]3CC[C@H]2CC(c2c[nH]c4ccccc24)C3)CC1 (stereo partly drawn) has what recorded inhibition?
Reply | 40

Ask | Item `CC[C@H]1CN2CC[C@H]1C[C@@H]2[C@@H](O)c1ccnc2ccc(OC)cc12` has what recorded inhibition?
Reply | -3

Ask | Item `COc1ccc(C(=O)[C@H]2C[C@@H]2CN2CC=C(c3c[nH]c4cccc(Br)c34)CC2)cc1` has what recorded inhibition?
Reply | 32

Ask | Item CCN(CC)CCN1C(=O)C(O)(c2ccccc2Cl)c2c1cc(C(N)=O)cc2C(F)(F)F (stereo not drawn) has what recorded inhibition?
Reply | 16

====

- experimental protocol: sensitizers of A549 cells to miR-34 induction, primary screen, imaging, A549 dox-inducible miR-34, nuclei and caspase counts (AID 1347080)
- applied conditions: A549 miR-34 inducible, Hoechst nuclei count, 48 h; measured here: total cells without miR-34 induction
Note to self: cell count under 6000 means T, ties and anything higher get F.

Example entries and their recorded answers appear below.
molecule	cat
CC1OC(=O)C(C(C)C)NC(=O)C(C(C)C)OC(=O)C(C(C)C)NC(=O)C(C)OC(=O)C(C(C)C)NC(=O)C(C(C)C)OC(=O)C(C(C)C)NC(=O)C(C)OC(=O)C(C(C)C)NC(=O)C(C(C)C)OC(=O)C(C(C)C)NC1=O (stereo not drawn)	T
C[C@@H]1O[C@@H](O[C@@H]2C[C@@H](O)[C@]3(CO)[C@H]4[C@H](O)C[C@]5(C)[C@@H](C6=CC(=O)OC6)CC[C@]5(O)[C@@H]4CC[C@]3(O)C2)[C@H](O)[C@H](O)[C@H]1O	T

Ask | Given the entry `O=C(O)c1ccc2[nH]cc(CCCCN3CC=C(c4ccccc4)CC3)c2c1` , would its reported cell count be below 6000?
Reply | F

Ask | Given the entry Oc1ccc2c3c1OC1C(O)CC[C@@]4(O)C(C2)N(CC2CCC2)CC[C@]314 (stereo partly drawn) , would its reported cell count be below 6000?
Reply | F

Ask | Given the entry OCC(O)[C@H]1O[C@@H]2O[C@H](C(Cl)(Cl)Cl)O[C@@H]2[C@H]1O (stereo partly drawn) , would its reported cell count be below 6000?
Reply | F

Ask | Given the entry O=C1OC2(c3cc(Br)c(O)cc3Oc3c2cc(Br)c(O)[c]3[Hg])c2ccccc21 (stereo not drawn) , would its reported cell count be below 6000?
Reply | F

Ask | Given the entry `CCCCC/C=C\C/C=C\C/C=C\C/C=C\CCCC(=O)O[C@H](COC(=O)CCCCCCCCCCCCCCCCC)COP(=O)([O-])OCC[N+](C)(C)C` , would its reported cell count be below 6000?
Reply | T

Ask | Given the entry `COc1ccc(S(=O)(=O)N(CCO)c2ccccc2CN(C)C/C=C/c2ccc(Cl)cc2)cc1` , would its reported cell count be below 6000?
Reply | T

Ask | Given the entry COc1cccc([C@@]2(O)CCCCC2CN(C)C)c1 (stereo partly drawn) , would its reported cell count be below 6000?
Reply | F

Ask | Given the entry `NC(=O)c1cc([N+](=O)[O-])cc([N+](=O)[O-])c1` , would its reported cell count be below 6000?
Reply | F

Ask | Given the entry CNc1ccc2oc(C[C@@H]3OC4(CC[C@@H]3C)O[C@H](C(C)C(=O)c3ccc[nH]3)[C@H](C)C[C@H]4C)nc2c1C(=O)O (stereo partly drawn) , would its reported cell count be below 6000?
Reply | T

Ask | Given the entry CCOC(=O)CN1C(=O)CC(C[C@@H](O)C2C[C@@H](C)C[C@H](C)C2=O)CC1=O (stereo partly drawn) , would its reported cell count be below 6000?
Reply | T

Ask | Given the entry CCNCC(O)c1cccc(O)c1 (stereo not drawn) , would its reported cell count be below 6000?
Reply | F
